molecular target: Human Nav1.8 (Homo sapiens); construct: expressed in transfected cells; host or cells: HEK293; assay: VIPR Assay for Nav1.8 Compounds (FRET membrane potential, deltamethrin opener); format: cell-based; conditions: VIPR FRET membrane potential assay, deltamethrin opener; average of replicates; read-out: Nav1.8 IC50
The reader will find reported IC50 values listed item by item below.
Answer in µM, number only, no unit symbol.

Here are 2 compounds together with their reported answers.
COCCCOc1ccccc1-c1ccc(NC(=O)c2conc2C)nc1N : 3.1
CCn1nccc1C(=O)Nc1ccc(-c2cc(Cl)ccc2Cl)c(N)n1 : 2.4

**Q:** I would be grateful if you could share the reported IC50 for COc1cc(OC)cc(C(=O)Nc2ccc(-c3cc(Cl)ccc3Cl)c(N)n2)c1 .
**A:** 3.3

**Q:** Next compound up: COc1cc(Cl)cc(-c2ccc(NC(=O)c3nonc3C)nc2N)c1Cl
**A:** 2.6

**Q:** Next compound up: CCn1nccc1C(=O)Nc1ccc(-c2cc(OC(F)(F)F)ccc2F)c(N)n1
**A:** 5

**Q:** Next compound up: COc1ccc(C(=O)Nc2ccc(-c3cc(Cl)ccc3Cl)c(N)n2)c(OC)c1
**A:** 3.5

**Q:** Next compound up: Cn1nccc1C(=O)Nc1ccc(-c2ccc(F)cc2Cl)c(N)n1
**A:** 25

**Q:** Next compound up: CC(C)COc1ccccc1-c1ccc(NC(=O)c2ccnn2C)nc1N
**A:** 0.64

###

target: Human Nav1.5 (Homo sapiens, UniProt Q14524); construct: expressed in transfected cells; host or cells: HEK293; experiment: Nav1.5 Assay (VIPR, HEK293 cells); format: cell-based; conditions: HEK293 cells expressing Human Nav1.5; average of replicates; read-out: Nav1.5 IC50
Sequence (Q14524 whole entry): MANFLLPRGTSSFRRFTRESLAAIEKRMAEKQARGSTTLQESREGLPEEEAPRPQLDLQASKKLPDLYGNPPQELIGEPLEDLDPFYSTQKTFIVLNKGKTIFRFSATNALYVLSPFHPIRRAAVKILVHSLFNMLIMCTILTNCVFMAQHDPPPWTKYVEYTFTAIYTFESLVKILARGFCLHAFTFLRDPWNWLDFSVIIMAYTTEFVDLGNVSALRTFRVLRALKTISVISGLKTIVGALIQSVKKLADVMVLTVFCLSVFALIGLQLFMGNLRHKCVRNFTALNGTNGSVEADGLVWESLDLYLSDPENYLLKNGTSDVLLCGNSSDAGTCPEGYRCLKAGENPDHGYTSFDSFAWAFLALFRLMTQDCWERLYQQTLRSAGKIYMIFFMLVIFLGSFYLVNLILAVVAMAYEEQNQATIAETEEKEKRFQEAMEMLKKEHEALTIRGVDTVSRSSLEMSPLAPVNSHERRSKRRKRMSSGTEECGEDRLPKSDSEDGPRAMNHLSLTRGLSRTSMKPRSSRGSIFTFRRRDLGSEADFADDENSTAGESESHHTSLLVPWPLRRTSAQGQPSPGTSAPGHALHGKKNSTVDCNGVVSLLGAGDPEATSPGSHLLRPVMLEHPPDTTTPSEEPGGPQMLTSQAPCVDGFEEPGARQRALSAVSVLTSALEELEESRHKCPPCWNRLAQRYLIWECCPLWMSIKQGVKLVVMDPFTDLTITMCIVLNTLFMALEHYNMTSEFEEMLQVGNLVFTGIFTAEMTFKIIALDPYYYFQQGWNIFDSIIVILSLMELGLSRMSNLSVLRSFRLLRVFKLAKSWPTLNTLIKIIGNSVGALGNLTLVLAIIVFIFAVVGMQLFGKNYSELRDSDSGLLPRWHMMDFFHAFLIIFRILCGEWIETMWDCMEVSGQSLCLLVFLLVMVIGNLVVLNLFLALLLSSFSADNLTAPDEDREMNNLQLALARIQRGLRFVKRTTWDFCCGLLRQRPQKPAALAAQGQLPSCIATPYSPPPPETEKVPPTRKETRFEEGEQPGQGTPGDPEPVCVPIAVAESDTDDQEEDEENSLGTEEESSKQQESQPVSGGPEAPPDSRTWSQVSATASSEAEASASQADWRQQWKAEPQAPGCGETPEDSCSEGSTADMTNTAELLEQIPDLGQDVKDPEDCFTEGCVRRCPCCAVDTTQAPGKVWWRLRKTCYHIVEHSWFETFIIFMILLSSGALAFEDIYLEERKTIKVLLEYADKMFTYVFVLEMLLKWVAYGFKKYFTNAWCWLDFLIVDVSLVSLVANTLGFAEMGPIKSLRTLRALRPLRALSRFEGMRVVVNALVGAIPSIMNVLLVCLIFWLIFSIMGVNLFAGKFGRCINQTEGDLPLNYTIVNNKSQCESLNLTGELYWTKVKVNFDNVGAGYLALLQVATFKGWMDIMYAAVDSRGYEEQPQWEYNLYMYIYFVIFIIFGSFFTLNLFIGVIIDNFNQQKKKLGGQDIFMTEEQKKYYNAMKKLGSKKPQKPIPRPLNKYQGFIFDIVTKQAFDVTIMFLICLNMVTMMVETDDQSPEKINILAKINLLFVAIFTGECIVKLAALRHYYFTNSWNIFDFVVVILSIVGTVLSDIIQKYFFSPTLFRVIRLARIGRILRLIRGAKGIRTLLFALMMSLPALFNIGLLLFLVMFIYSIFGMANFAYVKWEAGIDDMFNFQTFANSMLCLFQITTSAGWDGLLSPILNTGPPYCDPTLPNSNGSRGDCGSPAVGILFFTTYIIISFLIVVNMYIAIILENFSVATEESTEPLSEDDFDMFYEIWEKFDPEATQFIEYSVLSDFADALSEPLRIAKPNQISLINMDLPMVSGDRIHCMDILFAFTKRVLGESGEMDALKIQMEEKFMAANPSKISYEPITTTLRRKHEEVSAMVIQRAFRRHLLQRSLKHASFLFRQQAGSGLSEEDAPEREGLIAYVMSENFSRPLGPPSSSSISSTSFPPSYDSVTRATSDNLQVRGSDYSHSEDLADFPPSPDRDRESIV
Metric Name: pIC50
pIC50 is a log-scale quantity: -log10 of the concentration expressed in molar.

Here are 4 compounds together with their reported answers.
COc1cc(Cl)c(Cl)c(-c2ccc(NC(=O)c3conc3C)nc2N)c1 [Example 29] : 5.19
COc1cc(Cl)cc(-c2ccc(NC(=O)c3cnnn3C)nc2N)c1Cl [Example 87] : 5.00
Cc1nocc1C(=O)Nc1ccc(-c2cc(Cl)ccc2OC(F)(F)F)c(N)n1 [Example 32] : 5.11
COc1ccc(Cl)c(-c2ccc(NC(=O)c3ccnn3C(C)C)nc2N)c1 [Example 142] : 4.77

**Q:** I would be grateful if you could share the reported pIC50 for Cc1nocc1C(=O)Nc1ccc(-c2ccccc2OCC(F)(F)F)c(N)n1 [Example 134] .
**A:** 4.74

**Q:** Next compound up: CCn1nccc1C(=O)Nc1ccc(-c2cc(OC(F)(F)F)ccc2F)c(N)n1 [Example 64]
**A:** 4.85

###

target: Human Nav1.8 (Homo sapiens, UniProt Q9Y5Y9); construct: expressed in transfected cells; host or cells: HEK293; experiment: VIPR Assay for Nav1.8 Compounds (FRET membrane potential, deltamethrin opener); type: cell-based; conditions: VIPR FRET membrane potential assay, deltamethrin opener; average of replicates; read-out: Nav1.8 IC50
Sequence (Q9Y5Y9 whole entry): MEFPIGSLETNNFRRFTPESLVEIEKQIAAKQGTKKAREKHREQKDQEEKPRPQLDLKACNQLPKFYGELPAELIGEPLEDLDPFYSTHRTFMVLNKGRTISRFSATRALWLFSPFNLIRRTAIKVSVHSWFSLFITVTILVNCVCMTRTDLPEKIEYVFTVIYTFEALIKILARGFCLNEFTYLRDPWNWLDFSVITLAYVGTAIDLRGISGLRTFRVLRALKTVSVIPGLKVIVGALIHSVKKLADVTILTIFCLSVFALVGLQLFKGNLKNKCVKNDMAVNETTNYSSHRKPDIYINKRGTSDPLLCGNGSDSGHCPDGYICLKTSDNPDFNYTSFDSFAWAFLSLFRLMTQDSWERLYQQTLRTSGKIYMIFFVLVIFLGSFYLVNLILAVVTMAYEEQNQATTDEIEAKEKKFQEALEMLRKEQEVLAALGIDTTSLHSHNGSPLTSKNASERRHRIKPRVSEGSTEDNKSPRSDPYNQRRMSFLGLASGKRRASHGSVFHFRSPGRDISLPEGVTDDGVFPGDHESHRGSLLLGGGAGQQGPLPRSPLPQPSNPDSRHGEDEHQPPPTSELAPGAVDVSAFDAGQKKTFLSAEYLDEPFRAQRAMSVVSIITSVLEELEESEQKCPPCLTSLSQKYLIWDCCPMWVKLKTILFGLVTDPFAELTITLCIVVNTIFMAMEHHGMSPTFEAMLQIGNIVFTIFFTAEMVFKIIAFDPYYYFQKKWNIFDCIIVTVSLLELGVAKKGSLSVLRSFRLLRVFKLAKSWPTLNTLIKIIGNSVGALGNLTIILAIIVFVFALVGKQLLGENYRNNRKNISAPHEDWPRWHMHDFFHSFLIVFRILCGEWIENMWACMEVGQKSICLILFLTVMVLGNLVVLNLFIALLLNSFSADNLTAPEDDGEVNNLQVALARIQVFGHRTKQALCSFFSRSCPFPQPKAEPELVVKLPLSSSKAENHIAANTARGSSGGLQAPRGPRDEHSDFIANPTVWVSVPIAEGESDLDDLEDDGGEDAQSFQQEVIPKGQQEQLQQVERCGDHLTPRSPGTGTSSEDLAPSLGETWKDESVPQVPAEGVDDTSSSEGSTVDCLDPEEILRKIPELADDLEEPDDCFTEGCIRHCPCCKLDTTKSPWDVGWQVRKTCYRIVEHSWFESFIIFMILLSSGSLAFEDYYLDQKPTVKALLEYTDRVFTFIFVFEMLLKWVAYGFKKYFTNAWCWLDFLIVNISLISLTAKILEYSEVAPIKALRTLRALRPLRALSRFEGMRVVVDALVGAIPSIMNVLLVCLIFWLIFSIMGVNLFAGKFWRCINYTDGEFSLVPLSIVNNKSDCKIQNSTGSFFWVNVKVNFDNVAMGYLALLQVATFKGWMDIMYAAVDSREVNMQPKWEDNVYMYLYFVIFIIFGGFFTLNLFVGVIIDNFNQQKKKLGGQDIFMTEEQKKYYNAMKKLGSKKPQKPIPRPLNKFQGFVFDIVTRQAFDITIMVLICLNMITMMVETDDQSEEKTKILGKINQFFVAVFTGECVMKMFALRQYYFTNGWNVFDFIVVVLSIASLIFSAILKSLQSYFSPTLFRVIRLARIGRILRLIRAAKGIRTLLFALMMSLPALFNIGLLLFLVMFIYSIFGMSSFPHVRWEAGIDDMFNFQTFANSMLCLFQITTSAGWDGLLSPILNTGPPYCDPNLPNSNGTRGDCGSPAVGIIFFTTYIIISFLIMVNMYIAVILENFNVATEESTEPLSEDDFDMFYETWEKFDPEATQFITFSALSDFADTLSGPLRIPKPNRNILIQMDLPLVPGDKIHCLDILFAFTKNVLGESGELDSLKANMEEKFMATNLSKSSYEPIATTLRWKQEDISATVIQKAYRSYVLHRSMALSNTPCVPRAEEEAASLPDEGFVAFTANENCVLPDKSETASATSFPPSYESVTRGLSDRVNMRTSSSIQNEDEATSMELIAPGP
Metric Name: pIC50
pIC50 is a log-scale quantity: -log10 of the concentration expressed in molar.

COCCOc1ccccc1-c1ccc(NC(=O)c2ccnn2C)nc1N [Example 155] : 4.74

Attention now turns to another entry.
**Q:** I would be grateful if you could share the reported pIC50 for CCOc1ccc(OC(F)(F)F)c(-c2ccc(NC(=O)c3ccnn3C)nc2N)c1 [Example 110] .
**A:** 5.82
